# Tested on: Cynomolgus monkey
# protocol_summary: AUC (0 to 24 hrs) in cynomolgus monkey assessed as 2-(4-((5,6-diphenylpyrazin-2-yl)(isopropyl)amino)butoxy)acetic acid at 1 mg/kg, po
# Type: ADME, organism-based, Macaca fascicularis, Plasma
# Parameters: time < 24 hr, dose 1 mg/kg, route oral
# condition: in vivo
Answer each item with its documented AUC.
# unit: ng·h/mL | format: bare number

Using the record for CC(C)N(CCCCOCC(=O)NS(=O)(=O)C(C)C)c1cnc(-c2ccccc2)c(-c2ccccc2)n1 , state its measured AUC.
170

Using the record for CC(C)N(CCCCOCC(=O)NS(N)(=O)=O)c1cnc(-c2ccccc2)c(-c2ccccc2)n1 , state its measured AUC.
374

Using the record for CC(C)N(CCCCOCC(=O)NS(=O)(=O)C(F)(F)F)c1cnc(-c2ccccc2)c(-c2ccccc2)n1 , state its measured AUC.
308

Using the record for CC(C)N(CCCCOCC(=O)NS(C)(=O)=O)c1cnc(-c2ccccc2)c(-c2ccccc2)n1 [SELEXIPAG] , state its measured AUC.
859

// provenance: ChEMBL document CHEMBL1140507
